# Test system: HepG2
# protocol.description: Cytotoxicity against human HepG2 cells after 48 hrs by MTT assay
# Format: functional, cell-based
# condition.parameters: HepG2, 48 h
outcome.measure: IC50

// below: answered compounds
COc1ccc(C(=O)Nc2ccc3nc4ccccc4nc3c2)cc1    > 160 µM
O=S(=O)(Nc1ccc2nc3ccccc3nc2c1)c1ccccc1    > 160 µM
CCCC(=O)Nc1ccc2nc3ccccc3nc2c1    > 160 µM
Cc1cccc(C(=O)Nc2ccc3nc4ccccc4nc3c2)c1    16.7 µM
O=C(Nc1ccc2nc3ccccc3nc2c1)c1ccccc1    > 160 µM

Prompt: // lookup IC50 for `Cc1ccccc1C(=O)Nc1ccc2nc3ccccc3nc2c1`
Completion: > 160 µM

Prompt: // lookup IC50 for `O=C(CCCl)Nc1ccc2nc3ccccc3nc2c1`
Completion: > 160 µM

Prompt: // lookup IC50 for `O=C(Nc1ccc2nc3ccccc3nc2c1)c1ccco1`
Completion: 52.2 µM

Prompt: // lookup IC50 for `O=C(Cc1ccccc1)Nc1ccc2nc3ccccc3nc2c1`
Completion: > 160 µM

Prompt: // lookup IC50 for `O=C(Nc1ccc2nc3ccccc3nc2c1)C1CCCCC1`
Completion: > 160 µM

Prompt: // lookup IC50 for `CCC(=O)Nc1ccc2nc3ccccc3nc2c1`
Completion: > 160 µM

---

# reported pIC50; entries follow
# Test system: MCF7
# protocol.description: Cytotoxicity against human MCF7 cells after 48 hrs by MTT assay
# Type: functional, cell-based
# condition.parameters: MCF7, 48 h
Recall that pIC50 is obtained by taking minus log10 of the concentration measured in molar.

Cc1ccccc1C(=O)Nc1ccc2nc3ccccc3nc2c1    4.93
CN(C)C(=O)Nc1ccc2nc3ccccc3nc2c1    4.46
O=C(Nc1ccc2nc3ccccc3nc2c1)c1cccc2ccccc12    4.52

Below: the item to evaluate.
Prompt: // lookup pIC50 for `CCOC(=O)Nc1ccc2nc3ccccc3nc2c1`
Completion: 4.34

---

# Tested on: MCF7
# protocol.description: Cytotoxicity against human MCF7 cells after 48 hrs by MTT assay
# Format: functional, cell-based
# condition.parameters: MCF7, 48 h
pIC50: −log10 of the molar value.
# reported pIC50; entries follow

Prompt: // lookup pIC50 for `O=C(CCCl)Nc1ccc2nc3ccccc3nc2c1`
Completion: 4.42

Prompt: // lookup pIC50 for `O=C(Nc1ccc2nc3ccccc3nc2c1)c1ccccc1Cl`
Completion: < 3.80

Prompt: // lookup pIC50 for `O=C(Cc1cccs1)Nc1ccc2nc3ccccc3nc2c1`
Completion: < 3.80

---

# System: K562
# protocol.description: Cytotoxicity against human K562 cells after 48 hrs by MTT assay
# Format: functional, cell-based
# condition.parameters: K562, 48 h
pIC50: −log10 of the molar value.
outcome.measure: pIC50

// below: answered molecules
O=C(Nc1ccc2nc3ccccc3nc2c1)C1CCCCC1    4.10
O=S(=O)(Nc1ccc2nc3ccccc3nc2c1)c1ccccc1    < 3.80
O=C(Nc1ccc2nc3ccccc3nc2c1)c1cccs1    < 3.80
Cc1cccc(C(=O)Nc2ccc3nc4ccccc4nc3c2)c1    < 3.80
CCCC(=O)Nc1ccc2nc3ccccc3nc2c1    < 3.80
CCC(=O)Nc1ccc2nc3ccccc3nc2c1    4.24
Cc1ccccc1C(=O)Nc1ccc2nc3ccccc3nc2c1    < 3.80
O=C(Cc1ccccc1)Nc1ccc2nc3ccccc3nc2c1    < 3.80
COc1ccc(C(=O)Nc2ccc3nc4ccccc4nc3c2)cc1    < 3.80
O=C(CCCl)Nc1ccc2nc3ccccc3nc2c1    4.13

Prompt: // lookup pIC50 for `Cc1ccc(C(=O)Nc2ccc3nc4ccccc4nc3c2)cc1`
Completion: < 3.80

Prompt: // lookup pIC50 for `CC(=O)Nc1ccc2nc3ccccc3nc2c1`
Completion: 4.31

Prompt: // lookup pIC50 for `O=C(Nc1ccc2nc3ccccc3nc2c1)c1ccccc1Cl`
Completion: 4.48

Prompt: // lookup pIC50 for `CCOC(=O)Nc1ccc2nc3ccccc3nc2c1`
Completion: < 3.80

Prompt: // lookup pIC50 for `O=C(CCC1CCCC1)Nc1ccc2nc3ccccc3nc2c1`
Completion: 3.80

Prompt: // lookup pIC50 for `O=C(Nc1ccc2nc3ccccc3nc2c1)c1cccc(Cl)c1`
Completion: < 3.80

Prompt: // lookup pIC50 for `O=C(Nc1ccc2nc3ccccc3nc2c1)c1ccccc1`
Completion: < 3.80

Prompt: // lookup pIC50 for `O=C(Nc1ccc2nc3ccccc3nc2c1)c1cccc2ccccc12`
Completion: 4.21

---

# Test system: MCF7
# protocol.description: Cytotoxicity against human MCF7 cells after 48 hrs by MTT assay
# Type: functional, cell-based
# condition.parameters: MCF7, 48 h
# reported pIC50; entries follow
Recall that pIC50 is obtained by taking minus log10 of the concentration measured in molar.

// below: answered compounds
CC(=O)Nc1ccc2nc3ccccc3nc2c1    4.08
O=C(Nc1ccc2nc3ccccc3nc2c1)C1CCCCC1    3.86
CCCC(=O)Nc1ccc2nc3ccccc3nc2c1    4.16
CCC(=O)Nc1ccc2nc3ccccc3nc2c1    4.39

Below: the item to evaluate.
Prompt: // lookup pIC50 for `O=C(Nc1ccc2nc3ccccc3nc2c1)c1ccco1`
Completion: 4.54

---

# Tested on: HepG2
# protocol.description: Cytotoxicity against human HepG2 cells after 48 hrs by MTT assay
# Format: functional, cell-based
# condition.parameters: HepG2, 48 h
pIC50: −log10 of the molar value.
# reported pIC50; entries follow

CN(C)C(=O)Nc1ccc2nc3ccccc3nc2c1    < 3.80

Prompt: Give the reported pIC50 for `CCOC(=O)Nc1ccc2nc3ccccc3nc2c1` (system: HepG2).
Completion: 4.82

Prompt: Give the reported pIC50 for `O=C(Nc1ccc2nc3ccccc3nc2c1)c1cccc(Cl)c1` (system: HepG2).
Completion: < 3.80

Prompt: Give the reported pIC50 for `Cc1ccc(C(=O)Nc2ccc3nc4ccccc4nc3c2)cc1` (system: HepG2).
Completion: < 3.80

Prompt: Give the reported pIC50 for `O=C(Nc1ccc2nc3ccccc3nc2c1)c1cccs1` (system: HepG2).
Completion: < 3.80

---

# reported IC50; entries follow
# Tested on: HepG2
# protocol.description: Cytotoxicity against human HepG2 cells after 48 hrs by MTT assay
# Assay type: functional, cell-based
# condition.parameters: HepG2, 48 h
Please give a number only; it is taken to be in µM.

O=C(Nc1ccc2nc3ccccc3nc2c1)c1cccc2ccccc12    44.2

Below: the item to evaluate.
Prompt: // lookup IC50 for `O=C(Nc1ccc2nc3ccccc3nc2c1)c1ccccc1Cl`
Completion: 16.5

---

# reported pIC50; entries follow
# Tested on: HepG2
# protocol.description: Cytotoxicity against human HepG2 cells after 48 hrs by MTT assay
# Type: functional, cell-based
# condition.parameters: HepG2, 48 h
pIC50: −log10 of the molar value.

CC(=O)Nc1ccc2nc3ccccc3nc2c1    < 3.80
O=C(Cc1cccs1)Nc1ccc2nc3ccccc3nc2c1    < 3.80

Below: the item to evaluate.
Prompt: Give the reported pIC50 for `O=C(CCC1CCCC1)Nc1ccc2nc3ccccc3nc2c1` (system: HepG2).
Completion: < 3.80

Source listed as ChEMBL document CHEMBL2434917.
